Each record here notes measured log10 IC50.
# test.system: recombinant SARS-CoV-2 M^pro (Severe acute respiratory syndrome coronavirus 2 (2019-nCoV) (SARS-CoV-2), UniProt P0DTD1)
# method.notes: Inhibition of SARS-CoV-2 M^pro enzyme activity (fluorescent substrate assay)
# Assay type: biochemical
# cond: inhibition of SARS-CoV-2 M^pro enzyme activity; values in nM; read-out: IC50
In plain terms, each number is the log10 of measured IC50 in nM.

Given item `C[C@@H](NC(=O)C1CCC(F)(F)CC1)C(=O)N[C@H](Cc1ccccc1)C(=O)C(=O)NCc1ccc(Cl)cn1` , the value recorded as its log10 IC50 is 2.05

Quick note, log10 IC50 for `C[C@@H](NC(=O)/C=C/c1ccc(F)cc1)C(=O)N[C@H](Cc1ccccc1)C(=O)C(=O)NCc1ccccn1` landed at 2.23

Value of log10 IC50 reported for the compound `C[C@@H](NC(=O)c1ccc(F)c(S(C)(=O)=O)c1)C(=O)N[C@H](Cc1ccccc1)C(=O)C(=O)NCc1ccccn1` is 1.46

---
get_value(item= `C[C@@H](NC(=O)COc1ccc(Cl)cc1)C(=O)N[C@H](Cc1ccccc1)C(=O)C(=O)NCc1ccccn1` , readout=log10 IC50) returns 1.60

The compound identified as `O=C(NCc1ccccn1)C(=O)[C@@H](Cc1ccccc1)NC(=O)C1(C(=O)NCC2CCC(F)(F)CC2)CC1` registered its log10 IC50 at 1.22

The recorded log10 IC50 for `COc1ccc(CNC(=O)C(=O)[C@@H](Cc2ccccc2)NC(=O)[C@@H](C)NC(=O)C2CCC(F)(F)CC2)nc1` is 1.78

Noted for `O=C(CN1C(=O)CN(c2cc(F)c(F)c(F)c2)C1=O)N[C@H](Cc1ccccc1)C(=O)C(=O)NCc1nccs1` : its log10 IC50 reads 1.87

====

# test.system: recombinant SARS-CoV-2 M^pro (Severe acute respiratory syndrome coronavirus 2 (2019-nCoV) (SARS-CoV-2), UniProt P0DTD1)
# method.notes: Inhibition of SARS-CoV-2 M^pro enzyme activity (fluorescent substrate assay)
# Assay type: biochemical
# cond: inhibition of SARS-CoV-2 M^pro enzyme activity; values in nM; read-out: IC50
# IC50 binned as range A: < 20 nM; range B: ≥ 20 nM and < 40 nM; range C: ≥ 40 nM

Prompt: Band of O=C(CNC(=O)C1CCC(F)(F)CC1)N[C@H](Cc1ccc(Cl)cc1Cl)C(=O)C(=O)NCc1ccccn1 [Compound 450] ?
Response: range C

Then this molecule:
Prompt: Band of C[C@@H](NC(=O)C1CCC(F)(F)CC1)C(=O)N[C@H](Cc1ccccc1)C(=O)C(=O)NCc1cc(Cl)ccn1 [Compound 343] ?
Response: range A

====

# test.system: recombinant SARS-CoV-2 M^pro (Severe acute respiratory syndrome coronavirus 2 (2019-nCoV) (SARS-CoV-2), UniProt P0DTD1)
# method.notes: Inhibition of SARS-CoV-2 M^pro enzyme activity (fluorescent substrate assay)
# Assay type: biochemical
# cond: inhibition of SARS-CoV-2 M^pro enzyme activity; values in nM; read-out: IC50
IC50 overview
The answer is to be given in nM; state only the numeric part.

Sample answers from the record:
// field: IC50; key: `O=C(NCc1cscn1)C(=O)[C@@H](Cc1ccccc1)NC(=O)[C@H]1COCCN1C(=O)CC1CC(F)(F)C1` ; value = 171

So for O=C(NCc1ccccn1)C(=O)[C@@H](Cc1ccccc1)NC(=O)C1CCN(Cc2ccccc2)C1 (stereo partly shown) , the logged IC50 turned out to be 272

Entry `O=C(NCc1ccccn1)C(=O)[C@@H](Cc1ccccc1)NC(=O)C1(NC(=O)c2ccc(F)cc2)CCC1` — recorded IC50 = 13.7

The reported value for `O=C(NCc1ccccn1)C(=O)[C@@H](Cc1ccccc1)NC(=O)C1(NC(=O)C2CCC(F)(F)CC2)CC(F)(F)C1` in terms of IC50 is 19

For reference, reported IC50 for COC[C@@H](NC(=O)C1CCCC(F)(F)C1)C(=O)N[C@H](Cc1ccccc1)C(=O)C(=O)NCc1cocn1 (stereo partly shown) stands at 22.1

The compound O=C(NCc1ccccn1)C(=O)[C@@H](Cc1ccccc1)NC(=O)C1(NC(=O)C2C3COCC32)CCC1 (stereo partly shown) showed IC50 equal to 57.7

IC50 for O=C(NCc1nccs1)C(=O)[C@@H](Cc1ccccc1)NC(=O)C1(NC(=O)C2CCC(F)(F)C2)CC(F)(F)C1 (stereo partly shown) is 71.7

The recorded IC50 for `CC1=NN=C(C)C1C(=O)NC1(C(=O)N[C@H](Cc2ccccc2)C(=O)C(=O)NCc2ccccn2)CCC1` is 346

Attention now shifts to the item below.
Input `C[C@@H](OCc1ccccc1F)C(=O)N[C@H](Cc1ccccc1)C(=O)C(=O)NCc1ccccn1` . Output IC50: 48.3

====

# method.notes: in vivo
# Assay type: in vivo, ICR mice
# cond: male, mouse, in vivo, iv; ICR mice, i.v. 1 mg/kg
attribute.measured: Tmax (min)
Please respond with the number in min and leave the unit unwritten.

get_value(item= COC[C@@H](NC(=O)C1CCCC(F)(F)C1)C(=O)N[C@H](Cc1ccccc1)C(=O)C(=O)NCc1nccs1 (stereo partly shown) , readout=Tmax) returns 4.8

====

# method.notes: in vivo
# cond: male, Sprague-Dawley, rat, po, 10 mg/kg
Note to self: MRT inf under 4 h means Criterion met, ties and anything higher get Criterion not met.

Would you please look over these solved cases?
Prompt: MRT inf under 4 h? Item: `C[C@@H](NC(=O)C1CCC(F)(F)CC1)C(=O)N[C@H](Cc1ccccc1)C(=O)C(=O)NCc1ccccn1`
Response: Criterion met

Prompt: For `O=C(NCc1ccccn1)C(=O)[C@@H](Cc1ccccc1)NC(=O)[C@H]1COCCN1C(=O)CC1CCC(F)(F)CC1` , is the recorded MRT inf below the cut-off of 4 h?
Response: Criterion met

Further cases:
Prompt: Hello, I'm reviewing records and need to know if MRT inf of `O=C(CCC1CCC(F)(F)CC1)NCC(=O)N[C@H](Cc1ccccc1)C(=O)C(=O)NCc1ccccn1` is below 4 h. Could you check?
Response: Criterion not met

Prompt: Could you please tell me whether MRT inf recorded for C[C@@H](NC(=O)C1CCC(F)(F)C1)C(=O)N[C@H](Cc1ccccc1)C(=O)C(=O)NCc1nccs1 (stereo partly drawn) is less than 4 h?
Response: Criterion not met

Prompt: Determine if `O=C(NCc1ccccn1)C(=O)[C@@H](Cc1ccccc1)NC(=O)[C@H]1COCCN1C(=O)[C@H](NC(=O)c1cnccn1)C1CCCCC1` shows MRT inf strictly lower than 4 h.
Response: Criterion not met

Prompt: For C[C@@H](NC(=O)CC1CC1(F)F)C(=O)N[C@H](Cc1ccccc1)C(=O)C(=O)NCc1cscn1 (stereo partly drawn) , is the recorded MRT inf below the cut-off of 4 h?
Response: Criterion not met

====

Here, each record is paired with measured Human liver microsomes T1/2 data.
# method.notes: Metabolic stability using human liver microsomes
# Type: in vitro ADME
# cond: NADPH, 37° C.
Reply numerically in min, unit not repeated.

These solved cases illustrate the format of a correct answer.
Per the records, this compound ( COC[C@@H](NC(=O)CC1CC(F)(F)C1)C(=O)N[C@H](Cc1ccccc1)C(=O)C(=O)NCc1nccs1 [Compound 400] ) has Human liver microsomes T1/2 equal to 30.40

Entry under test: C[C@@H](NC(=O)C1CCC(F)(F)C1)C(=O)N[C@H](Cc1ccccc1)C(=O)C(=O)NCc1nccs1 (stereo partly shown) [Compound 379] . Its Human liver microsomes T1/2 was 42.21

Human liver microsomes T1/2 in this record for COC[C@@H](NC(=O)C1CCC(F)(F)CC1)C(=O)N[C@H](Cc1ccccc1)C(=O)C(=O)NCc1nccs1 [Compound 395] : 38.99

Now look at this one.
The recorded Human liver microsomes T1/2 for C[C@@H](NC(=O)C1CCC(F)(F)CC1)C(=O)N[C@H](Cc1ccccc1)C(=O)C(=O)NCc1nccs1 [Compound 354] is 35.61

====

# test.system: human caspase 2 (Homo sapiens (Human))
# Sequence (P42575 170-325): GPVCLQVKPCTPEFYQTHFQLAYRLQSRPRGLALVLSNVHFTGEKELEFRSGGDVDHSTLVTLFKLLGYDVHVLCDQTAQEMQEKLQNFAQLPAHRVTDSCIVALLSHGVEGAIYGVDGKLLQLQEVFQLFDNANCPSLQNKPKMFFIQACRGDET
# Sequence (P42575 348-452): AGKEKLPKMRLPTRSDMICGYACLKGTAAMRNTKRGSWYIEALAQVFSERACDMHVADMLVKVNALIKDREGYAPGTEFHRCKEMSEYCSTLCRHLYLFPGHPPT
# method.notes: Human protease biochemical activity assay: Caspase-2 inhibitor screening kit
pIC50: −log10 of the molar value.
attribute.measured: pIC50

pIC50 reported for this compound COC[C@@H](NC(=O)C1CCCC(F)(F)C1)C(=O)N[C@H](Cc1ccccc1)C(=O)C(=O)NCc1nccs1 (stereo partly shown) : < 4.00

====

# test.system: recombinant SARS-CoV-2 M^pro (Severe acute respiratory syndrome coronavirus 2 (2019-nCoV) (SARS-CoV-2))
# method.notes: Inhibition of SARS-CoV-2 M^pro enzyme activity (fluorescent substrate assay)
# Format: biochemical
# cond: inhibition of SARS-CoV-2 M^pro enzyme activity; values in nM; read-out: IC50
Rule for this label: y means IC50 is less than 40 nM; n means IC50 is at least 40 nM.

Prompt: Hello, is IC50 of the following compound strictly smaller than 40 nM? `CCC[C@@H](NC(=O)[C@@H](C)NC(=O)C1CCC(F)(F)CC1)C(=O)C(=O)NCc1ccccn1`
Response: n

Prompt: Check if IC50 falls below 40 nM for `C[C@@H](NC(=O)c1ccc(F)cc1)C(=O)N[C@H](Cc1ccccc1)C(=O)C(=O)NCc1ccc(Cl)cn1` .
Response: y

Prompt: In the record for O=C(NCc1cscn1)C(=O)[C@@H](Cc1ccccc1)NC(=O)[C@H]1COCCN1C(=O)CC1CC1(F)F (some centres unmarked) , is IC50 less than 40 nM?
Response: n

Prompt: Hello, I'm reviewing records and need to know if IC50 of `CC(C)[C@@H](OCc1ccc(F)cc1)C(=O)N[C@H](Cc1ccccc1)C(=O)C(=O)NCc1ccccn1` is below 40 nM. Could you check?
Response: y

Prompt: is_below(IC50, 40 nM) for O=C(NCc1nccs1)C(=O)[C@@H](Cc1ccccc1)NC(=O)[C@H]1COCCN1C(=O)CC1CC1(F)F (some centres unmarked) ?
Response: y

Others:
Prompt: For this compound, is IC50 lower than 40 nM? CN(C)CC(NC(=O)C1CCC(F)(F)CC1)C(=O)N[C@H](Cc1ccccc1)C(=O)C(=O)NCc1ccccn1 (some centres unmarked)
Response: n

Prompt: Does this compound meet the criterion IC50 < 40 nM? COC[C@@H](NC(=O)C1CCCC(F)(F)C1)C(=O)N[C@H](Cc1ccccc1)C(=O)C(=O)NCc1ccccn1 (some centres unmarked)
Response: y

Values were extracted from patent US20250064789A1.
